- Tested on: LOXIMVI (Melanoma)
- assay: SRB assay, LOXIMVI
- Type: cell-based, human
- assay.conditions: LOXIMVI, SRB, 48 h
Would you mind telling me the reported TGI of each entry?
Give bare numbers, in µM.

Guide cases for TGI, answers given:
molecule	quantity.kind	obs.value
C[C@]12CCC(=NOCCN)C=C1CCC1C2CC[C@]2(C)C(=O)CCC12 (stereo partly shown)	TGI	24.06
C[C@]12CCC(=NOCCN)C=C1CCC1C2CC[C@@]2(C)C1CC[C@@H]2O (stereo partly shown)	TGI	25.19

Next, consider the following molecule.
Hey, LOXIMVI (Melanoma) data for CC(=O)O[C@H]1C(=O)[C@@]2(C)[C@H]([C@H](OC(=O)c3ccccc3)[C@]3(O)C[C@H](OC(=O)[C@H](O)[C@@H](NC(=O)c4ccccc4)c4ccccc4)C(C)=C1C3(C)C)[C@]1(OC(C)=O)CO[C@@H]1C[C@@H]2O [Paclitaxel, reference compound] : TGI came out at 0.288

----------
- Tested on: SKMEL28 (Melanoma)
Would you mind telling me the reported GI50 of each entry?
Numbers only, in µM.

Guide cases for GI50, answers given:
compound	tested.target	GI50 (µM)
C[C@]12CCC(=NOCCN)C=C1CCC1C2CC[C@@]2(C)C1CC[C@@H]2O (stereo partly shown)	SKMEL28 (Melanoma)	19.9
C[C@]12CCC(=NOC3CCNC3)C=C1CCC1C2CC[C@]2(C)C(=O)CCC12 (stereo partly shown)	SKMEL28 (Melanoma)	0.993
C[C@]12CCC(=NOCCN)C=C1CCC1C2CC[C@]2(C)C(=O)CCC12 (stereo partly shown)	SKMEL28 (Melanoma)	8.39

Lab note: measured GI50 of CC(=O)O[C@H]1C(=O)[C@@]2(C)[C@H]([C@H](OC(=O)c3ccccc3)[C@]3(O)C[C@H](OC(=O)[C@H](O)[C@@H](NC(=O)c4ccccc4)c4ccccc4)C(C)=C1C3(C)C)[C@]1(OC(C)=O)CO[C@@H]1C[C@@H]2O [Paclitaxel, reference compound] was 2.3

----------
Would you mind telling me the reported GI50 of each entry?
- Test system: ERVK (Lung)
Answers are plain numbers, in nM.

compound	tested.target	GI50 / nM
C[C@]12CCC(=NOC3CCNC3)C=C1CCC1C2CC[C@]2(C)C(=O)CCC12 (stereo partly drawn) [Compound 61]	ERVK (Lung)	493

Look up GI50 for the entries below, preserving their order.
1. C[C@]12CCC(=NOCCN)C=C1CCC1C2CC[C@]2(C)C(=O)CCC12 (stereo partly drawn) [Compound 12]
2. C[C@]12CCC(=NOCCN)C=C1CCC1C2CC[C@@]2(C)C1CC[C@@H]2O (stereo partly drawn) [Compound 120]
3. C[C@]12CCC(=NOCCN)CC1CCC1C2CC[C@]2(C)C(=O)CCC12 (stereo partly drawn) [Compound 1]
4. C[C@]12CCC(=NOC3CCNC3)CC1CCC1C2CC[C@]2(C)C(=O)CCC12 (stereo partly drawn) [Compound 56]

output:
1: 1450; 2: 4570; 3: 338; 4: 17.9

----------
- Test system: 22 different cell lines, nine tumor panels (lung, melanoma, ovary, prostate, CNS, breast, pancreas colon and renal)
- assay: SRB assay, all tumor cell line panels (summary statements)
- Assay type: cell-based, human
- assay.conditions: SRB, all cell line panels
quantity.kind: GI50 action in all cell line panels tested (in words)

molecule	obs.value
C[C@]12CCC(=NOC3CCNC3)CC1CCC1C2CC[C@]2(C)C(=O)CCC12 (some centres unmarked)	nanomolar GI50 action
C[C@]12CCC(=NOC3CCNC3)C=C1CCC1C2CC[C@]2(C)C(=O)CCC12 (some centres unmarked)	nanomolar GI50 action
C[C@]12CCC(=NOCCN)CC1CCC1C2CC[C@]2(C)C(=O)CCC12 (some centres unmarked)	nanomolar GI50 action
